B1: library; a variant is named by its letters at N, in order (parent)
chain: AATGTTGTTGATGCAACCATAAAGTGATATTTAATAATTATTTATAATCAGCAACTTAACCACAAAACAACCATATATTGATATNTCACAAAACAACCATAANTTGATATTTTTGTGAATCGAGTATTTCAGCAAAACTACTGCAGTAAGAA

variants of: B1; assay: relative integration efficiency (T-LR orientation) vs wild-type transposon end (log2 (normalized fold change)); transposon end mutated: left end; higher = more efficient transposition; conditions: with VchCAST RNA-guided transposition machinery (E. coli BL21(DE3) host, lacZ target)
ENDPOINT: relative integration efficiency (log2)

>  <MUTATION STRING>
CG T82G A83C

>  <TEST VALUE>
-1.19

$$$$
>  <MUTATION STRING>
CG A91C A92C A93C C94A

>  <TEST VALUE>
-0.269

$$$$
>  <MUTATION STRING>
CG A81T T82A

>  <TEST VALUE>
-1.34

$$$$
>  <MUTATION STRING>
CA A23G G24T A33T A102T T111C T113C

>  <TEST VALUE>
-0.354

$$$$
>  <MUTATION STRING>
CG T114G G115T

>  <TEST VALUE>
0.781

$$$$
>  <MUTATION STRING>
CG A54C C55A

>  <TEST VALUE>
0.298

$$$$
>  <MUTATION STRING>
CG A23C G24T T25G G26T

>  <TEST VALUE>
-1.99

$$$$
>  <MUTATION STRING>
CG T12A G13A T32A A77C T86G

>  <TEST VALUE>
0.117

$$$$
>  <MUTATION STRING>
CG A83T T84A

>  <TEST VALUE>
-0.352

$$$$
>  <MUTATION STRING>
AG T31G T111G

>  <TEST VALUE>
-0.732

$$$$
>  <MUTATION STRING>
CG G4C

>  <TEST VALUE>
0.0545

$$$$
>  <MUTATION STRING>
CT A23C A77C

>  <TEST VALUE>
-0.217

$$$$
>  <MUTATION STRING>
CG A119C T120G C121A G122T A123C G124T T125G

>  <TEST VALUE>
-0.964

$$$$
>  <MUTATION STRING>
CG T104A

>  <TEST VALUE>
-0.147

$$$$
>  <MUTATION STRING>
TA A16C G24T T30A A70C T76A T84A C87A A102T T111C T113C

>  <TEST VALUE>
-0.517

$$$$
>  <MUTATION STRING>
CG T12A G13A T30A A77C T86G

>  <TEST VALUE>
-0.394

$$$$
>  <MUTATION STRING>
CG A27C T28G A29C T30G

>  <TEST VALUE>
-2.34

$$$$
>  <MUTATION STRING>
CG C63A A64C A65C A66C

>  <TEST VALUE>
-0.236

$$$$
>  <MUTATION STRING>
CG T28A T82A T108A

>  <TEST VALUE>
-2.22

$$$$
>  <MUTATION STRING>
CG T12A G13A T30A T31C A77C T86G

>  <TEST VALUE>
-1.07

$$$$
>  <MUTATION STRING>
CG A16T C17G

>  <TEST VALUE>
-0.34

$$$$
>  <MUTATION STRING>
CG A27T

>  <TEST VALUE>
-1.01

$$$$
